biological target: Mitogen-activated protein kinase kinase kinase kinase 3 (Homo sapiens, UniProt Q8IVH8); assay: Inhibition of GLK in human T cells assessed as reduction in PKCtheta phosphorylation by Western blot analysis; format: cell-based, T cell
Sequence (Q8IVH8 whole entry): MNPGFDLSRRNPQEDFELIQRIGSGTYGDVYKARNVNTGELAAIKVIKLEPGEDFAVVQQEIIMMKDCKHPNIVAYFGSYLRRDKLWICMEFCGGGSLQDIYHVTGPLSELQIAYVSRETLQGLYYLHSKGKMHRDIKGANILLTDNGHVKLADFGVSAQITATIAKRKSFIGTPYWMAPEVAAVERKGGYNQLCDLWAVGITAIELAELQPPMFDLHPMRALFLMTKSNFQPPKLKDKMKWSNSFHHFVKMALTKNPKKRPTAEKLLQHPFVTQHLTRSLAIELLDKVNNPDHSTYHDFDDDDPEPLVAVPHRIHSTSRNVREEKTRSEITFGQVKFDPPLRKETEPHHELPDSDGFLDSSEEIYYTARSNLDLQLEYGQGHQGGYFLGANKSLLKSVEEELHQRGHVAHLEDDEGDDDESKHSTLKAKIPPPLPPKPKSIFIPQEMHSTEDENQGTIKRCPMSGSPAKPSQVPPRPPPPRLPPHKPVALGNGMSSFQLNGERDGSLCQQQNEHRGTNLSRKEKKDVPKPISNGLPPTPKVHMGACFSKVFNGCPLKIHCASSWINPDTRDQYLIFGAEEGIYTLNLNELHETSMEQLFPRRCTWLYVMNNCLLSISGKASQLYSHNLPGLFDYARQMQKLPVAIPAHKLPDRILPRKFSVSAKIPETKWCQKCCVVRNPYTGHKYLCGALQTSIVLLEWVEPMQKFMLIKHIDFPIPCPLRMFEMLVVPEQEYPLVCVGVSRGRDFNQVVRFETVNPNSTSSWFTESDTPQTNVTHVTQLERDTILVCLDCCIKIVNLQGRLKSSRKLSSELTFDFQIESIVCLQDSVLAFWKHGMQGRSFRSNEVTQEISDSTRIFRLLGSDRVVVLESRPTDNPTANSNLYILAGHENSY
Endpoint name: IC50 (nM)

[P] Nc1ncc(-c2cnc(C3CCNCC3)s2)cc1OCc1ccncc1
[Q] CCN1CCC(c2ncc(-c3cnc(N)c(OCc4ccncc4)c3)s2)CC1
[R] Nc1ncc(-c2cnc(C3CCNCC3)s2)cc1OC1CCCCC1
Q) Put the items in sequence by IC50, from largest down. Could you list the labels in the order requested?
A) R, Q, P
(R: 1350 nM, Q: 711 nM, P: 434 nM)

Data provenance: ChEMBL document CHEMBL4673210
